Below, each entry is listed alongside its reported IC50.
Target: KRAS protein containing G12D mutation (Homo sapiens (Human), UniProt P01116, G12D)
Sequence (P01116 other isoform, or with tags, fused parts or gaps G12D (already in the parent)): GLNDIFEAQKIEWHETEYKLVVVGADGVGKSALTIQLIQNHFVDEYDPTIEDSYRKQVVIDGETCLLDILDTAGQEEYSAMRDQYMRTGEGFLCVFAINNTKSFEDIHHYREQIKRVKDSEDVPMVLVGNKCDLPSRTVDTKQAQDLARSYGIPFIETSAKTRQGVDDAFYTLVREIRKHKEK
Assay: SOS-catalyzed nucleotide exchange assay (GNE), TR-FRET
Assay type: biochemical
Conditions: biotinylated KRAS G12D, SOS and GTP, 60-minute incubation
Method: Compounds are added to this complex and then after a 60-minute incubation time the mixture is treated with SOS and unlabeled GTP. Small molecule inhibitors stabilize the Bodipy-GDP complex whereas the untreated protein rapidly exchanges Bodipy-GDP for unlabeled GTP resulting in reduced TR-FRET signal. This solution is referred to as biotinylated KRAS G12D stock solution.
# include the unit after the value

For CN(C)CC1(COc2nc(N3C[C@@H]4CC[C@](C)(C3)N4)c3cc(F)c(-c4cc(O)cc5ccccc45)c(F)c3n2)CC1 , what is its reported IC50?
117 nM

Would you mind telling me what IC50 value was observed for C[C@]12CCC(CN(c3nc(OC[C@@]45CCCN4C[C@H](F)C5)nc4c(F)c(-c5cc(O)cc(Cl)c5C(F)(F)F)c(F)cc34)C1)N2 (single isomer, unassigned) [Ex. 183a] ?
347 nM

Can you look up the measured IC50 of CC[C@@H]1[C@@H]2CC[C@@H](CN2)N1c1nc(OCC2(CN(C)C)CC2)nc2c(F)c(-c3cc(O)cc4ccccc34)c(F)cc12 for me?
2750 nM

# IC50 lookup, item C#Cc1c(F)ccc2cc(O)cc(-c3c(F)cc4c(N5CC6CC[C@@](C)(C5)N6)nc(OC[C@@]56CCCN5C[C@H](F)C6)nc4c3F)c12 (single isomer, unassigned) [Ex. 177a]
0.8 nM

* * *

Target: KRAS protein containing G12D mutation (Homo sapiens (Human), UniProt P01116, G12D)
Test: SOS-catalyzed nucleotide exchange assay (GNE), TR-FRET
Type: biochemical
Details: biotinylated KRAS G12D, SOS and GTP, 60-minute incubation
// IC50 lookup, one value per entry
Give your result in nM as a bare value.

{"compound": "C[C@]12CC[C@H](CN(c3nc(OC[C@@]45CCCN4C[C@H](F)C5)nc4c(F)c(-c5cc(N)c(F)c6cccc(Cl)c56)c(F)cc34)C1)N2 (single isomer, unassigned) [Ex. 163b]", "targetEntity": "KRAS protein containing G12D mutation (Homo sapiens (Human), UniProt P01116, G12D)", "measureUnit": "nM", "IC50": 4740}
{"compound": "C#Cc1c(F)ccc2cc(O)cc(-c3c(F)cc4c(N5CC6CC[C@@](C)(C5)N6)nc(OC[C@@]56CCCN5C[C@H](F)C6)nc4c3F)c12 (single isomer, unassigned) [Ex. 177b]", "targetEntity": "KRAS protein containing G12D mutation (Homo sapiens (Human), UniProt P01116, G12D)", "measureUnit": "nM", "IC50": 51.7}

Enter reported IC50 observed with KRAS protein containing G12D mutation (Homo sapiens (Human), UniProt P01116, G12D) for Cc1cc(N)nc(-c2c(Cl)cc3c(N4CC5CCC(C4)N5)nc(OC[C@@]45CCCN4C[C@H](F)C5)nc3c2F)c1CC(F)(F)F (single isomer, unassigned) [Ex. 157a]
113

Item CN(C)C[C@]1(COc2nc(N3CC4CCC(C3)N4)c3cc(Cl)c(-c4cc(O)cc5ccccc45)c(F)c3n2)CC1(F)F (atropisomer, axis not shown) [Example 11b] with KRAS protein containing G12D mutation (Homo sapiens (Human), UniProt P01116, G12D) - IC50?
131

* * *

Target: KRAS protein containing G12D mutation (Homo sapiens (Human), UniProt P01116, G12D)
Assay: SOS-catalyzed nucleotide exchange assay (GNE), TR-FRET
Type: biochemical
Settings: biotinylated KRAS G12D, SOS and GTP, 60-minute incubation
recordedEndpoint: IC50 (nM)
Return type: number; implicit unit nM.

I'd like to know its IC50. The compound in question is Cc1cc(N)nc(-c2c(F)cc3c(N4C[C@H]5CC[C@@H](C4)N5)nc(OC[C@@]45CCCN4C[C@H](F)C5)nc3c2F)c1C1CC1
57.6

Entry Cc1c(Cl)cc2[nH]nc(C)c2c1-c1c(F)cc2c(N3C[C@H]4CC[C@@](C)(C3)N4)nc(OCC3(CN4CC[C@@H](F)C4)CC3)nc2c1F : reported IC50 = ?
156

# input compound: C#Cc1cccc2cc(O)cc(-c3c(F)cc4c(N5C[C@H]6CC[C@@](C)(C5)N6)nc(OC[C@]5(CO)CC5(F)F)nc4c3F)c12 (single isomer, unassigned) ; wanted: its IC50
0.565
